From: patent US8716289B2

target: enzyme FAAH (Fatty Acid Amide Hydrolase) (Mus musculus); construct: The membrane homogenates are prepared extemporaneously by homogenizing the tissues; from tissue; host or cells: mouse brain (minus the cerebellum), membrane homogenate; test: FAAH radioenzymatic test, hydrolysis of anandamide [ethanolamine 1-3H] (Protocol 1); format: biochemical; settings: mouse brain membrane homogenate, anandamide 10 μM, preincubation 20 min at 25° C.
Sequence (O08914 whole entry): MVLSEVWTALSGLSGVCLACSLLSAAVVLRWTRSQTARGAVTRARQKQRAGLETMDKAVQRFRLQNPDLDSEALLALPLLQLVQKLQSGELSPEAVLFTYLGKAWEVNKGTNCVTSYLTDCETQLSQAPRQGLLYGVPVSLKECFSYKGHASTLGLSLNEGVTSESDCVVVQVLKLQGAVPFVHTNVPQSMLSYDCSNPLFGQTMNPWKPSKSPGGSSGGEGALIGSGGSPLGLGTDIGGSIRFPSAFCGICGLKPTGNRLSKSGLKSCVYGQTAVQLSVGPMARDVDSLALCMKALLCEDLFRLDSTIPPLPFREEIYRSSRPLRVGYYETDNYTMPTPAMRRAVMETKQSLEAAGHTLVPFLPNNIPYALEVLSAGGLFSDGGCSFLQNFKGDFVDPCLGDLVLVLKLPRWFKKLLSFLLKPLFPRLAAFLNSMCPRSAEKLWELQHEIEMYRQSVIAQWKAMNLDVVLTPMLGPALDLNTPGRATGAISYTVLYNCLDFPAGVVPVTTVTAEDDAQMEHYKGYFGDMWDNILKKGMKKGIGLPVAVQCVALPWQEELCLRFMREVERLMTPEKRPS
PROPERTY NAME: IC50 (nM)
One number for each entry, in nM.

Use these answered entries as a reference point.
CCc1noc(COC(=O)NCCC2CCN(c3ccc(-c4ccc(F)cc4)cn3)CC2)n1; 2
NC(=O)c1cc(COC(=O)NCCC2CCN(c3ccc(-c4ccc(F)cc4)cn3)CC2)on1; 1

Please turn your attention to the following entry.
# return recorded IC50 for input O=C(NCCC1CCN(c2ccc3cc(Cl)ccc3n2)CC1)OCc1nnc(-c2ccc(F)cc2)o1
47

---

PROPERTY NAME: melting point

O=C(NCCC1CCN(c2ccc3cc(Cl)ccc3n2)CC1)OCc1cc(C(=O)O)no1; 180 to 182 °C
NC(=O)c1cc(COC(=O)NCCC2CN(c3nccc(C(F)(F)F)n3)C2)on1; 163 to 165 °C
CCc1noc(COC(=O)NCCC2CCN(c3ccc(-c4ccc(F)cc4)cn3)CC2)n1; 110 to 112 °C

Can you give me melting point for all of these, one by one?
1. CC(C)(C)c1nnc(COC(=O)NCCC2CCN(c3ccc(-c4ccc(F)cc4)cn3)CC2)s1
2. CNC(=O)c1cc(COC(=O)NCCC2CN(c3nccc(C(F)(F)F)n3)C2)on1
3. NC(=O)c1cc(COC(=O)NCCC2CCN(c3ccc(-c4ccc(F)cc4)cn3)CC2)on1
4. CNC(=O)c1cc(COC(=O)NCCC2CCN(c3cncc(-c4ccc(F)cc4)n3)CC2)on1

1. 139 to 140 °C
2. 155 to 157 °C
3. 202 to 204 °C
4. 150 to 152 °C

Can you give me melting point for all of these, one by one?
1. CNC(=O)c1cc(COC(=O)NCCC2CCN(c3cccc(-c4ccc(F)cc4)n3)CC2)on1
2. Cn1ncnc1COC(=O)NCCC1CCN(c2ccc3cc(Cl)ccc3n2)CC1
3. CNC(=O)c1cc(COC(=O)NCCC2(C)CCN(c3cnc4cc(Cl)ccc4n3)CC2)on1

["155.5 to 157.5 °C", "122 to 124 °C", "167 to 169 °C"]

---

For each entry below, report its melting point value.

Use these answered entries as a reference point.
CCOC(=O)c1cc(COC(=O)NCCC2CCN(c3ccc4cc(Cl)ccc4n3)CC2)on1; 117 to 119 °C
CNC(=O)c1cc(COC(=O)NC2CCN(c3ccc([N+](=O)[O-])cc3C(F)(F)F)CC2)on1; 156 to 158 °C
CNC(=O)c1cc(COC(=O)NCCC2(CC(C)C)CCN(c3ccc([N+](=O)[O-])cc3C(F)(F)F)CC2)on1; 145 to 147 °C
O=C(NCCC1CCN(c2ccc3cc(Cl)ccc3n2)CC1)OCc1nc(-c2ccc(Cl)cc2)no1; 134 to 136 °C
O=C(NCCC1CCN(c2ccc3cc(Cl)ccc3n2)CC1)OCc1nc(-c2ccc(F)cc2)no1; 160 to 162 °C

Can you give me melting point for all of these, one by one?
1. O=C(NCCC1CCN(c2ccc3cc(Cl)ccc3n2)CC1)OCc1cc(-c2ccc(Cl)cc2)no1
2. O=C(NCCC1CCN(c2ccc3cc(Cl)ccc3n2)CC1)OCc1nnc(-c2ccc(Cl)cc2)o1
3. CC(C)CC(OC(=O)NCCC1CCN(c2ccc3cc(Cl)ccc3n2)CC1)c1ccoc1 (racemic)
4. CCOC(=O)c1cc(COC(=O)NCC2(F)CCN(c3ccc4cc(Cl)ccc4n3)CC2)on1

139 to 140 °C
152 to 153 °C
97 to 99 °C
132 to 134 °C

Can you give me melting point for all of these, one by one?
1. NC(=O)c1coc(COC(=O)NCCC2CCN(c3ccc(-c4ccc(F)cc4)cn3)CC2)n1
2. NC(=O)c1cc(COC(=O)NCCC2CCN(c3cnc(-c4ccc(F)cc4)cn3)CC2)on1

1. 206 to 208 °C
2. 187 to 189 °C
